# System: ZR-75-1 Tam1
# Experiment notes: drug sensitivity score (DSS) (DSS (dimensionless)); higher = more sensitive; extreme values may be limits of the assay
# Stated conditions: 4-OH-tamoxifen in medium 1 µM; 72 h
Here the recorded drug sensitivity score is given for each entry.
Number only, no unit.

Here is how some compounds turned out for drug sensitivity score.
compound=CCCC(CCC)C(=O)O test_value=0
compound=CC1=C2C[C@H]3[C@@H](CC=C4C[C@@H](O)CC[C@@]43C)[C@@H]2CC[C@]12O[C@@H]1C[C@H](C)CN[C@H]1[C@H]2C test_value=0
compound="CC(O)(CS(=O)(=O)c1ccc(F)cc1)C(=O)Nc1ccc(C#N)c(C(F)(F)F)c1 (stereo not given) [Bicalutamide]" test_value=0
compound=COc1ncc(-c2ccc3nccc(-c4ccnnc4)c3c2)cc1NS(=O)(=O)c1ccc(F)cc1F test_value=18.6
compound=CCNC(=O)CCC/C=C\C[C@@H]1[C@@H](/C=C/[C@@H](O)CCc2ccccc2)[C@H](O)C[C@@H]1O test_value=0
compound="COCC1(CO)C(=O)C2CCN1CC2 (stereo not given)" test_value=0
compound=CC[C@@H]1C(=O)N(C)c2cnc(Nc3ccc(C(=O)N[C@H]4CC[C@H](N5CCN(CC6CC6)CC5)CC4)cc3OC)nc2N1C(C)C test_value=1.07
compound="O=C1CCC(N2C(=O)c3ccccc3C2=O)C(=O)N1 (stereo not given) [Thalidomide]" test_value=0

Turning now to a further record.
[in] Give the value of drug sensitivity score reported for the following: "Cc1c(CN2CCN(C(=O)[C@H](C)O)CC2)sc2c(N3CCOCC3)nc(-c3cnc(N)nc3)nc12"
[out] 13.5
